System: STS26T
Method: drug sensitivity score (DSS, CellTiter-Glo viability, 72 h) (DSS (dimensionless)); higher = more sensitive; extreme values may be limits of the assay
The entries below are paired with their reported drug sensitivity score.

Req: // query drug sensitivity score value for entry CO[C@H]1C[C@@H]2CC[C@@H](C)[C@@](O)(O2)C(=O)C(=O)N2CCCC[C@H]2C(=O)O[C@H]([C@H](C)C[C@@H]2CC[C@@H](OC(=O)C(C)(CO)CO)[C@H](OC)C2)CC(=O)[C@H](C)/C=C(\C)[C@@H](O)[C@@H](OC)C(=O)[C@H](C)C[C@H](C)/C=C/C=C/C=C/1C [Temsirolimus] (max concentration tested 100 nM)
Resp: 14.4

Req: Entry CCc1c(C(=O)C(N)=O)c2c(OCC(=O)O)cccc2n1Cc1ccccc1 [Varespladib] (max concentration tested 10000 nM) has what drug sensitivity score?
Resp: 0

====

System: HSC1 (primary human Schwann cells)
Method: % inhibition of CellTiter-Glo viability at highest tested concentration (72 h), relative to DMSO and benzethonium chloride controls; higher = more inhibition
Parameter % inhibition: see the listing below.
Value and unit, in that order.

Molecule	Result
CC(=O)O[C@]1(C(C)=O)CC[C@H]2[C@@H]3C=C(C)C4=CC(=O)CC[C@]4(C)[C@H]3CC[C@@]21C [Megestrol] (max concentration tested 10000 nM)	9.41%
CCn1c(C(=O)N(C2CC2)C2CC2)cc2c3c(ncn3C)c(Nc3cc(C)n(C)n3)nc21 (max concentration tested 10000 nM)	9.48%

Req: What % inhibition appears in the records for this molecule with HSC1 (primary human Schwann cells)? CNNCc1ccc(C(=O)NC(C)C)cc1 [Procarbazine] (max concentration tested 10000 nM)
Resp: 4.32%

Req: Missing value: % inhibition, HSC1 (primary human Schwann cells), entry CC(=O)c1c(C)c2cnc(Nc3ccc(N4CCNCC4)cn3)nc2n(C2CCCC2)c1=O [Palbociclib] (max concentration tested 10000 nM) . Fill in?
Resp: 31.6%

Req: Provide value of % inhibition for this record tested with HSC1 (primary human Schwann cells): Cc1c(C(=O)Nc2ccc(N3C[C@@H](C)O[C@@H](C)C3)nc2)cccc1-c1ccc(OC(F)(F)F)cc1 [Erismodegib] (max concentration tested 10000 nM)
Resp: 9.09%

Req: Notebook: pull reported % inhibition for HSC1 (primary human Schwann cells), entry O=C(O)C1(C(=O)O)CCC1.[NH2-].[NH2-].[Pt+2] [Carboplatin aq] (max concentration tested 100000 nM)
Resp: 85.9%

Req: // fetch HSC1 (primary human Schwann cells) % inhibition for CN[C@@H](C)C(=O)N[C@H]1CN(C(=O)CC(C)C)CC[C@H]2CC[C@@H](C(=O)NC(c3ccccc3)c3ccccc3)N2C1=O [AT-406] (max concentration tested 10000 nM)
Resp: -7.18%

====

relative IC50 by entry:
Test system: HS-PSS
Method: relative IC50 (inflection point of fitted dose-response curve, CellTox-Green cytotoxicity, 72 h; top asymptote may be below 50%); higher = less potent

// below: answered molecules
>>> print(df.to_string())
                                   molecule  measurement_type   result
0  Cn1ncc(Cl)c1-c1cc(C(=O)N[C@H](CN)Cc2cccc(F)c2)sc1Cl     relative IC50   > 1 µM
1  O=C(/C=C\n1cnc(-c2cc(C(F)(F)F)cc(C(F)(F)F)c2)n1)NNc1cnccn1 [Selinexor]     relative IC50  1.46 µM
2  CCc1cncnc1N1CCN(Cc2nc3ccc(C(F)(F)F)cc3[nH]2)CC1     relative IC50  > 10 µM
3  O=C(c1ccc(C(=O)N2CCC(N3CCCC3)CC2)c(Nc2ccccc2)c1)N1CCC(N2CCCC2)CC1     relative IC50  > 30 µM

Shifting focus to the molecule that follows.
Req: relative IC50 for O=c1[nH]cc(F)c(=O)[nH]1 ?
Resp: > 10 µM

====

Test system: HSC2 (primary human Schwann cells)
Method: drug sensitivity score (DSS, CellTiter-Glo viability, 72 h) (DSS (dimensionless)); higher = more sensitive; extreme values may be limits of the assay
Catalogue of drug sensitivity score values
Reply briefly: the number, and no unit.

Solved cases (4 shown):
Compound	drug sensitivity score
C=CC(=O)Nc1cc2c(Nc3ccc(F)c(Cl)c3)ncnc2cc1OCCCN1CCOCC1 [Canertinib] (max concentration tested 10000 nM)	7.63
Cc1c2oc3c(C)ccc(C(=O)N[C@@H]4C(=O)N[C@H](C(C)C)C(=O)N5CCC[C@H]5C(=O)N(C)CC(=O)N(C)[C@@H](C(C)C)C(=O)O[C@@H]4C)c3nc-2c(C(=O)N[C@@H]2C(=O)N[C@H](C(C)C)C(=O)N3CCC[C@H]3C(=O)N(C)CC(=O)N(C)[C@@H](C(C)C)C(=O)O[C@@H]2C)c(N)c1=O [Dactinomycin] (max concentration tested 1000 nM)	33.5
Nc1ccccc1NC(=O)c1ccc(CNC(=O)OCc2cccnc2)cc1 [Entinostat] (max concentration tested 10000 nM)	4.87
CC[C@H](Nc1ncnc2[nH]cnc12)c1nc2cccc(F)c2c(=O)n1-c1ccccc1 [Idelalisib] (max concentration tested 10000 nM)	0

Req: Can you share its drug sensitivity score? I mean this compound: CC(=O)O[C@H]1C(=O)[C@@]2(C)[C@H]([C@H](OC(=O)c3ccccc3)[C@]3(O)C[C@H](OC(=O)[C@H](O)[C@@H](NC(=O)c4ccccc4)c4ccccc4)C(C)=C1C3(C)C)[C@]1(OC(C)=O)CO[C@@H]1C[C@@H]2O [Paclitaxel] (max concentration tested 1000 nM)
Resp: 19.1

Req: Reported drug sensitivity score for Clc1ccc(C(c2ccccc2Cl)C(Cl)Cl)cc1 (stereo not given) [Mitotane] (max concentration tested 10000 nM) : what is it?
Resp: 0

Req: Fill blank: measured drug sensitivity score of the compound CN1CCN(CCOc2cc(OC3CCOCC3)c3c(Nc4c(Cl)ccc5c4OCO5)ncnc3c2)CC1 [Saracatinib] (max concentration tested 10000 nM) is ____.
Resp: 3.21

Req: Need drug sensitivity score of COc1ccc(-c2ccc3c(N4CCOC[C@@H]4C)nc(N4CCOC[C@@H]4C)nc3n2)cc1CO [AZD8055] (max concentration tested 10000 nM) , thanks.
Resp: 27.2

Req: Could you share which drug sensitivity score value was measured for O=C(c1ccc(C(=O)N2CCC(N3CCCC3)CC2)c(Nc2ccccc2)c1)N1CCC(N2CCCC2)CC1 [UNC1215] (max concentration tested 30000 nM) ?
Resp: 0

Req: If you can, please state the reported drug sensitivity score value of O=C(O)CNC(=O)c1c(O)c2ccccc2n(Cc2ccccc2)c1=O [IOX-2] (max concentration tested 50000 nM) .
Resp: 1.03

====

Test system: HS-PSS
Method: drug sensitivity score (DSS, CellTiter-Glo viability, 72 h) (DSS (dimensionless)); higher = more sensitive; extreme values may be limits of the assay
Measured drug sensitivity score of individual entries
// return just the number, without any unit appended

Req: Could you tell me which drug sensitivity score is on file for CC[C@@]1(O)C(=O)OCc2c1cc1n(c2=O)Cc2cc3c(CN(C)C)c(O)ccc3nc2-1 [Topotecan] (max concentration tested 10000 nM) ?
Resp: 14.6

Req: Param item = Cn1nnc2c(C(N)=O)ncn2c1=O [Temozolomide] (max concentration tested 100000 nM) ; retrieve measured drug sensitivity score.
Resp: 0

Req: Form field: reported drug sensitivity score of Nc1ncnc2c1nc(N)n2[C@@H]1O[C@H](CO)[C@@H](O)[C@H]1O [8-amino-adenosine] (max concentration tested 50000 nM)
Resp: 17.9

Req: For CN(C[C@@H]1COCCO1)S(=O)(=O)Nc1ccc2ccc3ncc(-c4cnn(C)c4)cc3c(=O)c2c1 [MK-2461] (max concentration tested 10000 nM) , what is its reported drug sensitivity score?
Resp: 0.69

Req: For the compound NC(=O)c1cccc(-c2cccc(OC(=O)NC3CCCCC3)c2)c1 [URB597] (max concentration tested 1000 nM) , what drug sensitivity score is on record?
Resp: 1.09

Req: GET /values?readout=drug sensitivity score&item= CCS(=O)(=O)N1CCN(c2ccc(Nc3ncc(C(N)=O)c(NC4CC4)n3)cc2)CC1 [Cerdulatinib] (max concentration tested 10000 nM)
Resp: 3.47

Req: What does the data say about its drug sensitivity score? Entry: CNC(=O)c1ccc(N2C(=S)N(c3cnc(C#N)c(C(F)(F)F)c3)C(=O)C23CCC3)cc1F [ARN 509] (max concentration tested 10000 nM)
Resp: 2.56

Req: I have this compound here, CNc1nc(Nc2cn(C(C)(C)C#N)nc2C)ncc1C(F)(F)F [GNE-0877] (max concentration tested 1000 nM) , and I need its recorded drug sensitivity score.
Resp: 2.29

Req: Please give the measured drug sensitivity score for this compound: CC1CCC(n2c3cnccc3c3cnc(Nc4ccc5c(n4)CCN(C(=O)CO)C5)nc32)CC1 (configuration not stated) [AMG-925] (max concentration tested 1000 nM)
Resp: 0

Req: Endpoint output: drug sensitivity score of CC(C)(C)c1nc(-c2cccc(NS(=O)(=O)c3c(F)cccc3F)c2F)c(-c2ccnc(N)n2)s1 [Dabrafenib] (max concentration tested 2500 nM) . Value?
Resp: 0.78

Req: For the compound shown here, CO[C@H]1C[C@@H]2CC[C@@H](C)[C@@](O)(O2)C(=O)C(=O)N2CCCC[C@H]2C(=O)O[C@H]([C@H](C)C[C@@H]2CC[C@@H](OC(=O)C(C)(CO)CO)[C@H](OC)C2)CC(=O)[C@H](C)/C=C(\C)[C@@H](O)[C@@H](OC)C(=O)[C@H](C)C[C@H](C)/C=C/C=C/C=C/1C [Temsirolimus] (max concentration tested 100 nM) , give the reported drug sensitivity score.
Resp: 7.73

Req: Find the recorded drug sensitivity score belonging to CN(CC(=O)N(Cc1ccc(C2CCCCC2)cc1)c1ccc(C(=O)O)cc1)S(=O)(=O)c1c(F)c(F)c(F)c(F)c1F [SH-4-54] (max concentration tested 25000 nM) and report it.
Resp: 5.78

Req: Entry under review: CO[C@H]1C[C@@H]2CC[C@@H](C)[C@@](O)(O2)C(=O)C(=O)N2CCCC[C@H]2C(=O)O[C@H]([C@H](C)C[C@@H]2CC[C@@H](O)[C@H](OC)C2)CC(=O)[C@H](C)/C=C(\C)[C@@H](O)[C@@H](OC)C(=O)[C@H](C)C[C@H](C)/C=C/C=C/C=C/1C [Sirolimus] (max concentration tested 100 nM) . Reported drug sensitivity score?
Resp: 4.11

Req: Suppose we examine the compound COc1c(C)cnc(Cn2cnc3c(Cl)nc(N)nc32)c1C [BIIB021] (max concentration tested 10000 nM) ; what drug sensitivity score value has been reported?
Resp: 14.4

Req: Which drug sensitivity score is reported for this compound? O=C1NC(=O)[C@@H](c2cn3c4c(cccc24)CCC3)[C@@H]1c1c[nH]c2ccccc12 [Tivantinib] (max concentration tested 1000 nM)
Resp: 2.27

Req: // returns reported drug sensitivity score for input CC[C@H](NC(=O)[C@H](C)NC)C(=O)N1C[C@@H](O)C[C@H]1Cc1c(-c2[nH]c3cc(F)ccc3c2C[C@@H]2C[C@H](O)CN2C(=O)[C@H](CC)NC(=O)[C@H](C)NC)[nH]c2cc(F)ccc12 [Birinapant] (max concentration tested 1000 nM)
Resp: 0

Req: Look up drug sensitivity score: CS(=O)(=O)c1ccc(-c2cnc(N)c(C(=O)Nc3ccccc3)n2)cc1 [VE-821] (max concentration tested 10000 nM)
Resp: 0.05

Req: Dear colleague, I am looking for the recorded drug sensitivity score of the following compound: CCNC(=O)c1noc(-c2cc(C(C)C)c(O)cc2O)c1-c1ccc(CN2CCOCC2)cc1 [Luminespib] (max concentration tested 1000 nM)
Resp: 14

Req: Give its drug sensitivity score value. Item: O=C(c1cccc(Cl)c1F)N1CCN(Cc2cccc(Nc3nccs3)n2)CC1 [MK-8745] (max concentration tested 2500 nM)
Resp: 0.32

Req: Value lookup for drug sensitivity score; key = Cc1cccc(CC(=O)N2CCc3c2ccc(-c2cn(C)c4ncnc(N)c24)c3F)n1 (max concentration tested 2500 nM)
Resp: 0.96

Req: Tell me the measured drug sensitivity score of O=C(O)CCCc1ccc(N(CCCl)CCCl)cc1 [Chlorambucil] (max concentration tested 10000 nM) , please.
Resp: 0

Req: Can you look up the measured drug sensitivity score of CCN(CC)Cc1ccc2cc(COC(=O)Nc3ccc(C(=O)NO)cc3)ccc2c1 [Givinostat] (max concentration tested 1000 nM) for me?
Resp: 3.45
